biological target: recombinant His-tagged cytoplasmic domains of TRKA receptor (NTRK1, PV3144, aa 441-796) (Homo sapiens, UniProt P04629); construct: aa 441-796; His; experiment: Isolated TRK enzyme assay (HTRF KinEASE-TK, PV3144 TrkA enzyme assay); conditions: 4 nM enzyme, 40 uM ATP, 35 min, arithmetic mean where more than one reading
Sequence (P04629 441-796): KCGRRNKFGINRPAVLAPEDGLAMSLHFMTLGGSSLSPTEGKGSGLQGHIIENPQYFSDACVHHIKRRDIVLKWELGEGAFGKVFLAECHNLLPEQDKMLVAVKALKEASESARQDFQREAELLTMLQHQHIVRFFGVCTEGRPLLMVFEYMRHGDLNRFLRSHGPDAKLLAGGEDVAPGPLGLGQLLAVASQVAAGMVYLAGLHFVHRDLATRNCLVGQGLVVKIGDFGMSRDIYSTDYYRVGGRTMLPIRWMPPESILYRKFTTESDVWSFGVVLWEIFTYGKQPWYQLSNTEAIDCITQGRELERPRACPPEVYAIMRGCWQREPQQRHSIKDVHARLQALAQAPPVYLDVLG
reportedMetric: IC50 (nM)

# example entries with known answers
>>> df
                                   compound  reportedmetric  uom  result
0  NCc1ccc(-c2ccc(OC3CCN(C(=O)Cc4ccc(OC(F)(F)F)cc4)CC3)c(C(N)=O)c2)cc1            IC50   nM       5
1  Cn1cc(-c2cnc(O[C@H]3CCN(C(=O)Cc4ccc(OC(F)(F)F)cc4)C[C@H]3F)c(C(N)=O)c2)cn1            IC50   nM     1.2

A = CS(=O)(=O)Cn1cc(-c2cnc(O[C@H]3CCN(C(=O)Cc4ccc(OC5CC5)cc4)C[C@@H]3F)c(C(N)=O)c2)cn1
B = Cn1cnc(-c2ccc(OC3CCN(C(=O)Cc4ccc(OC(F)(F)F)c(Cl)c4)CC3)c(C(N)=O)c2)c1
## Task Which entry shows the lesser value of IC50 here, A or B ? Answer = label.
## Result A

====

target: recombinant His-tagged cytoplasmic domains of TRKA receptor (NTRK1, PV3144, aa 441-796) (Homo sapiens); construct: aa 441-796; His; experiment: Isolated TRK enzyme assay (HTRF KinEASE-TK, PV3144 TrkA enzyme assay); conditions: 4 nM enzyme, 40 uM ATP, 35 min, arithmetic mean where more than one reading
reportedMetric: IC50 (nM)

# example entries with known answers
>>> print(df.to_string())
                                   compound  reportedmetric  result
0  NC(=O)c1cc(-c2cn[nH]c2)ccc1O[C@@H]1CCN(C(=O)Cc2ccc(OC(F)(F)F)cc2)C[C@@H]1F [Example 73]            IC50     0.9
1  C[C@H](CO)n1cc(-c2ccc(OC3CCN(C(=O)Cc4ccc(OC(F)(F)F)cc4)CC3)c(C(N)=O)c2)cn1 [Example 132]            IC50     5.1
2  NC(=O)c1cc(-c2cnn(CCO)c2)cnc1OC1CCN(C(=O)Cc2ccc(OC3CC3)cc2)CC1 [Example 176]            IC50    12.2
3  NC(=O)c1cc(-c2cnn(C3CS(=O)(=O)C3)c2)ccc1O[C@@H]1CCN(C(=O)Cc2ccc(OC(F)(F)F)cc2)C[C@@H]1F [Example 1]            IC50     0.4
4  Cn1cc(-c2cnc(O[C@@H]3CCN(C(=O)Cc4ccc(OC(F)(F)F)cc4)C[C@@H]3F)c(C(N)=O)c2)cn1 [Example 71]            IC50     1.3

P = NC(=O)c1cc(-c2cn(C[C@H](O)CO)cn2)ccc1OC1CCN(C(=O)Cc2ccc(OC(F)(F)F)cc2)CC1 [Example 125]
Q = Cn1cnc(-c2ccc(OC3CCN(C(=O)Cc4ccc(OC(F)(F)F)cc4)CC3(C)C)c(C(N)=O)c2)c1 (racemic) [Example 49]
## Task Which value of IC50 is numerically greater: that of P or that of Q ? Answer = label.
## Result P
(P: 6.6 nM, Q: 3.7 nM)

====

Target: recombinant His-tagged cytoplasmic domains of TRKA receptor (NTRK1, PV3144, aa 441-796) (Homo sapiens)
Construct: aa 441-796; His
Experiment: Isolated TRK enzyme assay (HTRF KinEASE-TK, PV3144 TrkA enzyme assay)
Conditions: 4 nM enzyme, 40 uM ATP, 35 min, arithmetic mean where more than one reading
Description: Isolated TRK Enzyme assays use the HTRF KinEASE-TK kit (Cisbio Cat #62TK0PEJ) with recombinant His-tagged cytoplasmic domains of TRKA receptor sourced from Invitrogen (see table below). […] After the Detection Reagent addition, plates are covered and incubated at room temperature for 60 minutes. […] Test compound data are expressed as percentage inhibition defined by HPE and ZPE values for each plate. […] Where more than one reading was taken, the arithmetic mean is presented.
pIC50: −log10 of the molar value.
reportedMetric: pIC50

>>> df
                                   molecule  reportedmetric  result
0  CC(C)(O)Cn1cc(-c2ccc(O[C@H]3CCN(C(=O)Cc4ccc(OC5CC5)cn4)C[C@@H]3F)c(C(N)=O)c2)cn1 [Example 34]           pIC50    8.11
1  CS(=O)(=O)Cn1cc(-c2cc(C(N)=O)c(O[C@H]3CCN(C(=O)Cc4ccc(OC(F)(F)F)cc4)C[C@@H]3F)cn2)cn1 [Example 166]           pIC50    7.89
2  Cn1cnc(-c2ccc(O[C@@H]3C[C@H]4CC[C@@H](C3)N4C(=O)Cc3ccc(OC(F)(F)F)cc3)c(C(N)=O)c2)c1 [Example 48]           pIC50    8.44

a = CC(C)(O)Cn1cc(-c2ccc(O[C@H]3CCN(C(=O)Cc4ccc(OC5CC5)cn4)C[C@H]3F)c(C(N)=O)c2)cn1 (racemic) [Example 45]
b = Cc1nc(OC2CCN(C(=O)Cc3ccc(OC(F)(F)F)cc3)CC2)c(C(N)=O)cc1-c1cn(C)cn1 [Example 69]
c = NC(=O)c1cc(-c2cn[nH]c2)ccc1O[C@H]1CCN(C(=O)Cc2ccc(OC(F)(F)F)cc2)C[C@H]1F [Example 5]
d = Cn1cc(-c2ccc(OC3CCN(C(=O)Cc4ccc(OC(F)(F)F)cn4)CC3)c(C(N)=O)c2)cn1 [Example 10]
## Task Put these in order: smallest pIC50 first, largest last. Output spec: a listing of the labels in the requested order.
## Result d, b, a, c
(d: 8.00, b: 8.21, a: 8.74, c: 9.05)

====

target: recombinant His-tagged cytoplasmic domains of TRKA receptor (NTRK1, PV3144, aa 441-796) (Homo sapiens); construct: aa 441-796; His; experiment: Isolated TRK enzyme assay (HTRF KinEASE-TK, PV3144 TrkA enzyme assay); conditions: 4 nM enzyme, 40 uM ATP, 35 min, arithmetic mean where more than one reading
pIC50: −log10 of the molar value.
reportedMetric: pIC50

                                   molecule  result
0  NC(=O)c1cc(-c2cnn(C3CS(=O)(=O)C3)c2)cnc1O[C@@H]1CCN(C(=O)Cc2ccc(OC(F)(F)F)cc2)C[C@@H]1F    8.85
1  Cc1nc(-c2cnc(OC3CCN(C(=O)Cc4ccc(OC(F)(F)F)cc4)CC3)c(C(N)=O)c2)c[nH]1    7.97
2  Cn1cnc(-c2ccc(O[C@@H]3CCN(C(=O)Cc4ccc(OC(F)(F)F)cc4)C[C@H]3F)c(C(N)=O)c2)c1 [Example 53]    8.92
3  CC(C)(N)c1ccc(-c2ccc(OC3CCN(C(=O)Cc4ccc(OC(F)(F)F)cc4)CC3)c(C(N)=O)c2)cc1    8.46
4  NC(=O)c1cc(-c2ccc(CO)cc2)cnc1OC1CCN(C(=O)Cc2ccc(OC(F)(F)F)cc2)CC1    7.92

1 = NC(=O)c1cc(-c2cnn(C3CCS(=O)(=O)C3)c2)ccc1OC1CCN(C(=O)Cc2ccc(OC(F)(F)F)cc2)CC1 (racemic)
2 = NC(=O)c1cc(-c2cn[nH]c2)ccc1O[C@@H]1CCN(C(=O)Cc2ccc(OC3CC3)cn2)C[C@@H]1F
## Task Which value of pIC50 is numerically greater: that of 1 or that of 2 ? Answer = label.
## Result 2

====

biological target: recombinant His-tagged cytoplasmic domains of TRKA receptor (NTRK1, PV3144, aa 441-796) (Homo sapiens, UniProt P04629); construct: aa 441-796; His; experiment: Isolated TRK enzyme assay (HTRF KinEASE-TK, PV3144 TrkA enzyme assay); details: 4 nM enzyme, 40 uM ATP, 35 min, arithmetic mean where more than one reading
reportedMetric: IC50 (nM)

                                   compound  reportedmetric  result
0  Cn1cnc(-c2ccc(O[C@H]3CCN(C(=O)Cc4ccc(OC(F)(F)F)cc4)C[C@@H]3F)c(C(N)=O)c2)c1 (single isomer, unassigned)            IC50     1.5
1  Cn1cc(-c2ccc(OC3CCN(C(=O)Nc4ccc(OC5CC5)cc4)CC3)c(C(N)=O)c2)cn1            IC50    19.3

P = Cn1cc(-c2cnc(O[C@@H]3CCN(C(=O)Cc4ccc(OC(F)(F)F)cc4)C[C@@H]3F)c(C(N)=O)c2)nn1
Q = NC(=O)c1cc(-c2cnn(CCO)c2)ccc1OC1CCN(C(=O)Cc2ccc(OC(F)(F)F)cc2)CC1
R = NC(=O)c1cc(N2CCCC2)ncc1OC1CCN(C(=O)Cc2ccc(OC(F)(F)F)cc2)CC1
## Task Please list these compounds in decreasing order of IC50. Output spec: a listing of the labels in the requested order.
## Result R, Q, P
(R: 42.4 nM, Q: 5.5 nM, P: 2.45 nM)
